Reference for the values: the supplement of paper PMC11061612

system: FU97 (Gastric Carcinoma); assay: Bliss excess, mean over the matrix (fraction); higher = more synergy;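 further: after 72 h of two-drug dosing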
Classification by Bliss excess follows these ranges: LOW (below -0.03), MEDIUM (-0.03 to below -0.001), HIGH (-0.001 or more)

NC1(C(=O)N[C@@H](CCO)c2ccc(Cl)cc2)CCN(c2ncnc3[nH]ccc23)CC1 [Capivasertib] + Cn1cnc2c(F)c(Nc3ccc(Br)cc3Cl)c(C(=O)NOCCO)cc21 [Selumetinib] (first compound max 10 µM, 7x7, partner max 10 µM) | HIGH

Into which category would you place CC(=O)c1c(C)c2cnc(Nc3ccc(N4CCNCC4)cn3)nc2n(C2CCCC2)c1=O [Palbociclib] + Cc1c2c(nn1C)CSCc1cc(n(C)n1)CSc1cc(c3ccccc3c1)OCCCc1c(C(=O)O)n(C)c3c-2c(Cl)ccc13 [AZD5991] (first compound max 10 µM, 7x7, partner max 1 µM) ?
HIGH

----------
test system: CCK-81 (Colorectal Carcinoma); assay: Bliss excess, mean over the matrix (fraction); higher = more synergy
endpoint_name: Bliss excess
Returns: the value as a bare number; no unit string appended.

Param readout = Bliss excess; param system = CCK-81 (Colorectal Carcinoma); param query = NC1(C(=O)N[C@@H](CCO)c2ccc(Cl)cc2)CCN(c2ncnc3[nH]ccc23)CC1 [Capivasertib] + C[C@@H]1COCCN1C2=NC(=NC(=C2)C3(CC3)[S@](=N)(=O)C)C4=C5C=CNC5=NC=C4 [AZD6738] (first compound max 10 µM, 7x7, partner max 10 µM) ; response: value
-0.139

What do you get for CN(CCO)CC[C@H](CSc1ccccc1)Nc1ccc(S(=O)(=O)NC(=O)c2ccc(N3CCC([C@@H](O)c4ccccc4-c4ccc(Cl)cc4)CC3)cc2)cc1S(=O)(=O)C(F)(F)F [AZD4320] + Cn1cnc2c(F)c(Nc3ccc(Br)cc3Cl)c(C(=O)NOCCO)cc21 [Selumetinib] (first compound max 1 µM, 7x7, partner max 3 µM) ?
0.133

What do you get for N#Cc1cnc(Nc2cc(NC[C@H]3CNCCO3)c(C(F)(F)F)cn2)cn1 [SRA737] + Nc1ccn([C@@H]2O[C@H](CO)[C@@H](O)C2(F)F)c(=O)n1 [Gemcitabine] (first compound max 10 µM, 7x7, partner max 0.3 µM) ?
-0.0976

What do you get for C[C@@H]1COCCN1c1cc(C2([S@](C)(=N)=O)CC2)nc(-c2ccnc3[nH]ccc23)n1 [AZD6738] + O=C(c1cc(Cc2n[nH]c(=O)c3ccccc23)ccc1F)N1CCN(C(=O)C2CC2)CC1 [Olaparib] (first compound max 10 µM, 7x7, partner max 10 µM) ?
-0.0049

What do you get for C=CCn1c(=O)c2cnc(Nc3ccc(N4CCN(C)CC4)cc3)nc2n1-c1cccc(C(C)(C)O)n1 [AZD1775] + C1CN(CCC1(C(=O)N[C@@H](CCO)C2=CC=C(C=C2)Cl)N)C3=NC=NC4=C3C=CN4 [Capivasertib] (first compound max 3 µM, partner max 3 µM) ?
-0.0214

What do you get for CS(=O)(=O)CCNCc1ccc(-c2ccc3ncnc(Nc4ccc(OCc5cccc(F)c5)c(Cl)c4)c3c2)o1 [Lapatinib] + NC1(c2ccc(-c3nc4ccn5c(=O)[nH]nc5c4cc3-c3ccccc3)cc2)CCC1 [MK-2206] (first compound max 10 µM, 7x7, partner max 10 µM) ?
0.0908

What do you get for CCN(CCO)CCCOc1ccc2c(Nc3cc(CC(=O)Nc4cccc(F)c4)[nH]n3)ncnc2c1 [AZD2811] + C[C@@H]1COCCN1C2=NC(=NC(=C2)C3(CC3)[S@](=N)(=O)C)C4=C5C=CNC5=NC=C4 [AZD6738] (first compound max 1 µM, 7x7, partner max 10 µM) ?
-0.0388

What do you get for Cc1cc2ncnn2cc1Nc1ncc2c(n1)n(C1CCOCC1)c(=O)n2C [AZD7648] + CCN(CCO)CCCOc1ccc2c(Nc3cc(CC(=O)Nc4cccc(F)c4)[nH]n3)ncnc2c1 [AZD2811] (first compound max 10 µM, 7x7, partner max 1 µM) ?
0.0699

What do you get for NC1(C(=O)N[C@@H](CCO)c2ccc(Cl)cc2)CCN(c2ncnc3[nH]ccc23)CC1 [Capivasertib] + CC(=O)c1c(C)c2cnc(Nc3ccc(N4CCNCC4)cn3)nc2n(C2CCCC2)c1=O [Palbociclib] (first compound max 10 µM, 7x7, partner max 10 µM) ?
-0.0025
